# Target System: T1, human PILRA, c-term His-Avi tag (human, UniProt Q9UKJ1 20-197, limits assumed)
# T1 construct: not shown: C-terminal His-Avi tag
# T1 sequence (Q9UKJ1 20-197 limits assumed): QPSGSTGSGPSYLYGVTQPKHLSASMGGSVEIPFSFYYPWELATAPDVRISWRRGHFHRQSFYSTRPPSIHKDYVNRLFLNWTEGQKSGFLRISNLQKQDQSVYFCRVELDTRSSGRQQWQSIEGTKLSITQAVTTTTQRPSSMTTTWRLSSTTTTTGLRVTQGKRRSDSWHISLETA
# Protocol Notes: SPR (Biacore), antibody captured, PILRA as analyte
Reported Kd values for a set of binders
Observed Property: Kd (nM)

Binder: A14 (antibody, V domains shown, phage campaign) VH: QVQLVQSGAEVKKPGASVKVSCKASGYTFTSYYMYWVRQAPGQGLEWMGWMNPNSGNTGFAQKFQGRVTMTRDTSTSTVYMELSSLRSEDTAVYYCASGYYDSWSGETDYGMDVWGQGTTVTVSS VL: DIQMTQSPSSLSASVGDRVTITCRASQSISSYLNWYQQKPGKAPKLLIYDASTLESGVPSRFSGSGSGTDFTLTISSLQPEDFATYYCQQSYKTPYTFGQGTKLEIK
Observed Property: Kd
Measured Number: 12.2
--
Binder: D5 (antibody, V domains shown, second hybridoma campaign) VH: EVKLDETGGGLVQPGRPMKLSCVASGFTFSDYWMNWVRQSPEKGLEWVAQIRNKLYNYETYYSDSVKGRFTISRDDSKSSVYLQMNNLRAEDMGIYYCTVGLAMDYWGQGTSVTVSS VL: DIQMTQSSSSFSVSLGDRVTITCKASEDIYNRLAWYQQKPGNAPRLLISGATSLETGVPSRFSGSGSGKEYTLNITSLQTEDVATYYCQQYWSTPTFGGGTKLEIK
Observed Property: Kd
Measured Number: 36.8
--
Binder: A4 (antibody, V domains shown, phage campaign) VH: QVQLVQSGAEVKKPGSSVKVSCKASGYTFTGYAVNWVRQAPGQGLEWMGGIIPIFGTANYAQKFQGRVTITADESTSTAYMELSSLRSEDTAVYYCARNLGYSSGWSGYYYGMDVWGQGTMVTVSS VL: EIVMTQSPATLSVSPGERATLSCRASQSVSSNYLAWYQQKPGQAPRLLIYGASTRATGIPARFSGSGSGTEFTLTISSLQSEDFAVYYCQQYGSSSFTFGPGTKLEIK
Observed Property: Kd
Measured Number: 113
